Target: CYP1A2 (Homo sapiens, UniProt P05177)
Sequence (P05177 whole entry): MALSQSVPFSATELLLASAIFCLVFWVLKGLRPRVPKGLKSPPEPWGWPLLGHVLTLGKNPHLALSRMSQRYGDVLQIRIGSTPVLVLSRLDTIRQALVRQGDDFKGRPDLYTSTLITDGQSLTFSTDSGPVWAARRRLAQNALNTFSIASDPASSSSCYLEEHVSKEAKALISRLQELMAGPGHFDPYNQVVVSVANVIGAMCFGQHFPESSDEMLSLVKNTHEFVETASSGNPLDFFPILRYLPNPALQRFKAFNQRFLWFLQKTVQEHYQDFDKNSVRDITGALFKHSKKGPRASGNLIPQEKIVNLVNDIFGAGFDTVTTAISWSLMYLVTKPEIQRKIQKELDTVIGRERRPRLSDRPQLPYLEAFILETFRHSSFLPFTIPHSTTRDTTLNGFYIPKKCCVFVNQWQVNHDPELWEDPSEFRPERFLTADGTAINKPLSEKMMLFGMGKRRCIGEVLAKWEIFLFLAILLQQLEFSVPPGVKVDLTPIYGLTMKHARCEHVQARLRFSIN
Experiment: in vitro
Settings: E. coli expressed CYP1A2, pH 7.4, probe CEC 5 μM
MEASURE_NAME: inhibition at 15 min, 10 μM
Please provide the amount together with its unit, number first.

Below, each entry is followed by its recorded inhibition at 15 min, 10 μM result.
COMPOUND	ASSAY_SYSTEM	inhibition at 15 min, 10 μM
CCc1nc2ccc(C(=O)N(CC(C)C)C[C@@H](O)[C@H](Cc3ccccc3)NC(=O)OCc3cncs3)cc2o1 [Compound C39]	CYP1A2 (Homo sapiens, UniProt P05177)	2%
CC(C)CN(C[C@@H](O)[C@H](Cc1ccccc1)NC(=O)OCc1cncs1)C(=O)c1ccc2nc(N3CCN(C)CC3)oc2c1 [Compound C15]	CYP1A2 (Homo sapiens, UniProt P05177)	18%
CCN(C)c1nc2ccc(C(=O)N(CC3CCCCC3)C[C@@H](O)[C@H](Cc3ccccc3)NC(=O)OCc3cncs3)cc2o1 [Compound C32]	CYP1A2 (Homo sapiens, UniProt P05177)	27%
CC(C)CN(C[C@@H](O)[C@H](Cc1ccccc1)NC(=O)OCc1cncs1)C(=O)c1ccc2nc(NCCN(C)C)oc2c1 [Compound C16]	CYP1A2 (Homo sapiens, UniProt P05177)	0%
CC(C)CN(C[C@@H](O)[C@H](Cc1ccccc1)NC(=O)OCc1cncs1)C(=O)c1ccc2ncoc2c1 [Compound C38]	CYP1A2 (Homo sapiens, UniProt P05177)	7%

Query (compound): CC(C)CN(C[C@@H](O)[C@H](Cc1ccccc1)NC(=O)OCc1cncs1)C(=O)c1ccc2ncn(C)c2c1 [Compound C8] ; field requested: inhibition at 15 min, 10 μM
4%

Query (compound): CC(C)CN(C[C@@H](O)[C@H](Cc1ccccc1)NC(=O)OCc1cncs1)C(=O)c1ccc2nc(N)sc2c1 [Compound C6] ; field requested: inhibition at 15 min, 10 μM
36%

* * *

Assay: Metabolic stability of test compounds (HLM15')
Format: in vitro ADME, human
Conditions: human liver microsomes 1 mg/ml, 5 μM test compound, 15 min
Label Not fulfilled if Metabolic stability (HLM, % recovery after 15') falls below 60%; label Fulfilled in every other case.

Some solved entries appear below for comparison.
CPD_SMILES	ANSWER_LABEL
CCN(C)c1nc2ccc(C(=O)N(C[C@@H](O)[C@H](Cc3ccccc3)NC(=O)OCc3cncs3)CC(C)(C)C)cc2o1	Fulfilled
CC(C)CN(C[C@@H](O)[C@H](Cc1ccccc1)NC(=O)OCc1cncs1)C(=O)c1ccc2nc(NCCCn3ccnc3)oc2c1	Fulfilled
CCN(C)c1nc2ccc(C(=O)N(CC(C)C)C[C@@H](O)[C@H](Cc3ccccc3)NC(=O)OCc3ccc4c(c3)OCO4)cc2o1	Fulfilled
CCNc1nc2ccc(C(=O)N(CC(C)C)C[C@@H](O)[C@H](Cc3ccccc3)NC(=O)OCc3cncs3)cc2o1	Not fulfilled
CCN(C)c1nc2ccc(C(=O)N(CCN(C)C)C[C@@H](O)[C@H](Cc3ccccc3)NC(=O)OCc3cncs3)cc2o1	Not fulfilled

Now let's try a different one.
For this molecule, is measured Metabolic stability (HLM, % recovery after 15') 60% or higher? O=C(N[C@@H](Cc1ccccc1)[C@H](O)CN(CC1CCC(F)(F)CC1)C(=O)c1ccc2nc(N3CCCC3)oc2c1)OCc1cncs1
Fulfilled
